- System: UACC-257 melanoma
- assay.method.text: NCI tumour cell line growth inhibition, 48 h; in the data active = GI50 below about 0.43 µM; inactive = the rest
Valid outcomes are listed here; reply with one: active, inactive

Ask: How was COc1cc(C2C(C#N)=C(N)Oc3cc(O)ccc32)cc(OC)c1OC (configuration not stated) classified in this test?
Result: active

Ask: How was `Oc1cc2ccccc2cc1-c1n[nH]c(=S)n1-c1ccc(Cl)cc1` classified in this test?
Result: inactive

Ask: How was `COc1ccc(/C=C/C(=O)c2ccc(Nc3ccnc4cc(Cl)ccc34)cc2)cc1` classified in this test?
Result: inactive

Ask: How was `Cc1nn(-c2ccc(Br)cc2)c(C)c1CC(=O)c1cc(O)ccc1O` classified in this test?
Result: inactive

Ask: How was `CCN1CCN(C(=O)[C@]23CCC(C)(C)C[C@@H]2C2=CC[C@@H]4[C@@]5(C)C/C(=C/c6cccnc6)C(=O)C(C)(C)[C@@H]5CC[C@@]4(C)[C@]2(C)CC3)CC1` classified in this test?
Result: inactive

Ask: How was `COc1ccc(Cn2c(Br)c3c(c2-c2cc(OC)c(OC)c(OC)c2)CCc2sc(NC(C)=O)nc2-3)cc1` classified in this test?
Result: inactive

Ask: How was `COc1cc2c3c(c4c5ccccc5[nH]c4c2c(OC)c1OC)C(=O)N(CCN1CCCCC1)C3=O` classified in this test?
Result: inactive

Ask: How was `O=C(CCl)Nc1ccc2c(c1)C(=O)c1ccc(NC(=O)CCl)cc1C2=O` classified in this test?
Result: inactive

Ask: How was `NC(N)=Nc1nc2ccccc2[nH]1` classified in this test?
Result: inactive

Ask: How was `C[C@]12CC[C@H]3[C@@H](C[C@@H]4N=C(c5ccc(O)cc5)S[C@@]45C[C@H](O)CC[C@]35C)[C@@H]1CC[C@@H]2O` classified in this test?
Result: inactive

Ask: How was `CCCN1CCN(c2ccc3nc(-c4ccc5nc(-c6ccc(OCC)c(OCC)c6)[nH]c5c4)[nH]c3c2)CC1` classified in this test?
Result: inactive

Ask: How was `CC(=O)Nc1sc2c(c1-c1nc3ccccc3s1)CNC2` classified in this test?
Result: inactive

---

- Tested on: HOP-62 NSCLC
- assay.method.text: NCI tumour cell line growth inhibition, 48 h; in the data active = GI50 below about 0.43 µM; inactive = the rest
Valid outcomes are listed here; reply with one: yes for active, no for inactive

Ask: How was Cc1ccc(NC(=O)c2nc(S(C)=O)oc2-c2ccc(F)cc2)cc1Nc1nccc(-c2cccnc2)n1 (stereo not given) classified in this test?
Result: no

Ask: How was `COc1ccc(/C=C/C(=O)c2ccc(Nc3ccnc4cc(Cl)ccc34)cc2)cc1` classified in this test?
Result: no

Ask: How was `CC[C@@]1(O)C(=O)OCc2c1cc1n(c2=O)Cc2c-1nc1ccccc1c2/C=N/OC(C)(C)C` classified in this test?
Result: yes

Ask: How was `O=C1C(Cl)=C(Nc2cccc(O)c2)C(=O)N1c1cccc(Cl)c1Cl` classified in this test?
Result: no

Ask: How was `COc1cc(OC)cc(-c2cncn2-c2ccc(-c3nc4cc(OC)c(OC)c(OC)c4s3)cc2)c1` classified in this test?
Result: no

Ask: How was `CCCN1CCN(c2ccc3nc(-c4ccc5nc(-c6ccc(OCC)c(OCC)c6)[nH]c5c4)[nH]c3c2)CC1` classified in this test?
Result: no

Ask: How was `O=C(Nc1ccc(Br)cc1F)c1cc(Br)ccc1O` classified in this test?
Result: no

Ask: How was CN1CCCN(C(c2ccccc2)c2ccc(Br)cc2)CC1 (stereo not given) classified in this test?
Result: no

Ask: How was `O=C1c2cccnc2C(=O)c2c1c(C(=O)OCCN1CCOCC1)c1ccccn21` classified in this test?
Result: yes

Ask: How was `COc1cc(-c2cc(CCC(=O)Nc3ccccc3[N+](=O)[O-])n(-c3ccc([N+](=O)[O-])cc3[N+](=O)[O-])n2)ccc1O` classified in this test?
Result: no

---

Provide the recorded TGI for the entries that follow.
- Tested on: NCI-H522 lung
- assay.method.text: NCI tumour cell line growth inhibition, 48 h

Ask: Sample `Cc1cccc(NC(=S)N/N=C(/c2ccccc2)c2ccccn2)c1` — what was its TGI?
Result: 14.6 µM

Ask: Sample `Cn1cnc([N+](=O)[O-])c1Sc1nc(N)nc2c1ncn2Cc1ccccc1` — what was its TGI?
Result: 24.1 µM

Ask: Sample `O=CC1(C2(C=O)c3ccccc3-c3ccccc32)c2ccccc2-c2ccccc21` — what was its TGI?
Result: 4.38 µM

Ask: Sample `O=[N+]([O-])c1ccc(-c2cn(-c3ccc(Cl)cc3)cn2)cc1` — what was its TGI?
Result: 14.4 µM

Ask: Sample `O=C(CN1CCN(c2ccc(Cl)cc2)CC1)N1CCN(c2nnc(-c3ccccc3)c(-c3ccccc3)n2)CC1` — what was its TGI?
Result: > 100 µM

Ask: Sample `Cc1ccccc1/C=C1\CN(C(=O)OC(C)(C)C)C/C(=C\c2ccccc2C)C1=O` — what was its TGI?
Result: 6.63 µM

Ask: Sample CC(Oc1ccc2cc(C(=O)c3ccccc3)c(=O)oc2c1)C(=O)O (stereo not given) — what was its TGI?
Result: > 100 µM

Ask: Sample `O=c1[nH]c(/C=C(\O)c2ccncc2)nc2ccccc12` — what was its TGI?
Result: > 100 µM

Ask: Sample CC1Cc2cc(O)ccc2C2[C@@H]1C1CC[C@H](O)[C@@]1(C)C[C@@H]2O[N+](=O)[O-] (stereo not given in full) — what was its TGI?
Result: 61.3 µM

Ask: Sample CC1(C)OC(=O)C(=C2CC(c3ccccc3)c3ccccc32)C(=O)O1 (stereo not given) — what was its TGI?
Result: > 100 µM

---

- Tested on: IGROV1 ovarian
- assay.method.text: NCI tumour cell line growth inhibition, 48 h
Provide the recorded TGI for the entries that follow.

Ask: Write down the reported TGI of `COc1cc2c3c(n(CCCCl)c(=O)c2cc1OC)-c1ccc(C#N)cc1C3=O` , test system: IGROV1 ovarian.
Result: 23.1 µM

Ask: Write down the reported TGI of `COC(=O)c1scc(N)c1-n1ccc(=O)[nH]c1=O` , test system: IGROV1 ovarian.
Result: > 100 µM

Ask: Write down the reported TGI of COC(=O)C1CCC(=O)N1C(c1ccc2c(c1)OCO2)c1ccc2c(c1)OCO2 (stereo not given) , test system: IGROV1 ovarian.
Result: > 100 µM

Ask: Write down the reported TGI of COc1ccc(C#CCC(OC2OC(CO)C(O)C(O)C2O)C(O)c2ccc(OC)c(OC)c2)cc1OC (stereo not given) , test system: IGROV1 ovarian.
Result: > 100 µM

Ask: Write down the reported TGI of `COc1ccc(/C(C)=N/NC(N)=S)c(OC)c1` , test system: IGROV1 ovarian.
Result: > 100 µM

---

- Test system: NCI/ADR-RES ovarian
- assay.method.text: NCI tumour cell line growth inhibition, 48 h; in the data active = GI50 below about 0.43 µM; inactive = the rest
Valid outcomes are listed here; reply with one: TRUE for active, FALSE for inactive

Ask: How was `C/C(=N\NC(=O)c1ccncc1)c1ccc(O)cc1O` classified in this test?
Result: FALSE

Ask: How was Nc1nc2c(c3cnccc13)C(c1cccc(Cl)c1)Cc1cnccc1-2 (stereo not given) classified in this test?
Result: TRUE

Ask: How was `CCCN1CCN(c2ccc3nc(-c4ccc5nc(-c6ccc(OCC)c(OCC)c6)[nH]c5c4)[nH]c3c2)CC1` classified in this test?
Result: FALSE

Ask: How was CSc1nc2c(c(=O)[nH]1)C(c1ccc(Cl)cc1)C1=C(N2)/C(=C/c2ccc(Cl)cc2)CNC1 (stereo not given) classified in this test?
Result: FALSE

Ask: How was `O=C1c2cccnc2C(=O)c2c1c(C(=O)OCCN1CCOCC1)c1ccccn21` classified in this test?
Result: TRUE

---

- Test system: HCT-15 colon
- assay.method.text: NCI tumour cell line growth inhibition, 48 h
readout.name: TGI

Ask: Sample COC1(C)C=NCC(C)(C)NC(=O)C(C)(OC)C=NCC(C)(C)NC1=O (stereo not given) — what was its TGI?
Result: > 10 µM

Ask: Sample CCC(/C(=N\Nc1c(Cl)cc(Cl)cc1Cl)c1ccccc1)n1ccnc1C (stereo not given) — what was its TGI?
Result: 24.4 µM

Ask: Sample O=C1OC2C(O)C(=O)OC2C1O (stereo not given) — what was its TGI?
Result: > 100 µM

Ask: Sample `O=C(O)/C=C\C(=O)Nc1ccc2c(c1)C(=O)c1cc(F)ccc1-2` — what was its TGI?
Result: > 100 µM

Ask: Sample `CSc1ccc2c(cc1=O)[C@@H](NC(=O)c1ccc(F)cc1)CCc1cc(O)c(O)c(O)c1-2` — what was its TGI?
Result: > 100 µM

Ask: Sample `CC(C)CC(=O)NS(=O)(=O)c1ccccc1` — what was its TGI?
Result: > 100 µM

Ask: Sample CCCCCCCCCC(CCCC(O)CC(=O)O)OC1OC(COC2OC(C)C(O)C(O)C2O)C(O)C(O)C1OC1OC(CO)C(O)C(O)C1OC1OC(C)C(O)C(O)C1O (stereo not given) — what was its TGI?
Result: > 40 µM

Ask: Sample COC(=O)C1C2CCCN2OC1(C)CO (stereo not given) — what was its TGI?
Result: > 100 µM

Ask: Sample `O=CC1(C2(C=O)c3ccccc3-c3ccccc32)c2ccccc2-c2ccccc21` — what was its TGI?
Result: 3.66 µM

Ask: Sample CN1CCCCC1CCN1c2ccccc2Sc2ccc(S(C)=O)cc21 (stereo not given) — what was its TGI?
Result: > 100 µM
